Recorded values, source patent US20260125388A1.

Permeability (log Pe (cm/s)) values by entry
# measurement_context: parallel artificial membrane permeation assay at pH 7.4
Provide the reading as a plain figure in cm/s.

[[record]]
input_smiles = "CCOC(=O)c1ncn2c1C(C)(C)N=C(c1ccccc1F)c1cc(Br)ccc1-2"
metric_name = "Permeability (log Pe (cm/s))"
readout_value = "−6.0"

[[record]]
input_smiles = "CC1(C)N=C(c2ccccc2F)c2cc(Br)ccc2NC1=O"
metric_name = "Permeability (log Pe (cm/s))"
readout_value = "−5.7"


Fill in: Permeability (log Pe (cm/s)) of CC1(C)N=C(c2ccccc2F)c2cc(Br)ccc2-n2cnc(C(=O)O)c21 is ___
−7.0

Look up Permeability (log Pe (cm/s)): C#Cc1ccc2c(c1)C(c1ccccc1F)=NC1(CC1)c1c(C(=O)O)ncn1-2
−6.7

For the compound shown here, CCOC(=O)c1ncn2c1C1(CCC1)N=C(c1ccccc1F)c1cc(Br)ccc1-2 , give the reported Permeability (log Pe (cm/s)).
−5.8

Quick one: Permeability (log Pe (cm/s)) of O=C(O)c1ncn2c1C1(CC1)N=C(c1ccccc1F)c1cc(Br)ccc1-2 ?
−6.8

# input compound: O=C1Nc2ccc(Br)cc2C(c2ccccc2F)=NC12CC2 ; wanted: its Permeability (log Pe (cm/s))
−5.6

Quick one: Permeability (log Pe (cm/s)) of O=C(O)c1ncn2c1C1(CCC1)N=C(c1ccccc1F)c1cc(Br)ccc1-2 ?
−6.6
